So I've got a bunch of compounds here, and I need their IC50 values.

// query Lab note: need IC50 for `CC(=O)Nc1ccc(CN[C@H]2CC[C@@H](Oc3ccc4cnccc4c3)CC2)cc1` on ROCK2 (human) (UniProt O75116), anyone have it?
// result ≤ 1000 nM

// query Lab note: need IC50 for `N[C@H]1CC[C@H](Oc2c(Cl)cc3cnccc3c2Cl)CC1` on ROCK2 (human) (UniProt O75116), anyone have it?
// result ≤ 1000 nM

// query Lab note: need IC50 for `N[C@H]1CC[C@@H](Oc2ccc3cnccc3c2-c2ccsc2)CC1` on ROCK2 (human) (UniProt O75116), anyone have it?
// result ≤ 1000 nM
